These entries and their values trace back to the RNAGym collection of RNA variant scans (doi:10.7554/elife.80360).

B1: CPEB3 Ribozyme (parent)
chain: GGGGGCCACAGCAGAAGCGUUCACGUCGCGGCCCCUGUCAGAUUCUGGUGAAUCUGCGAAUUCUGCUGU

# Variants of: B1
# testName: self-cleavage, relative activity (ratio to wild type); higher = more cleavage; co-transcriptional
Provide the reported self-cleavage of each item.
One number for each entry.

>  <sequenceChange>
G1A U21C

>  <self-cleavage>
0.0967

$$$$

// batch mode: one self-cleavage value per listed entry
1. G5U C39G
2. G11C U55A
3. G28U C32G
4. G50U U64G
5. C9A A15U
6. G19U G50U
7. U26G G28A
8. U55C U62C

Result ::
[0.0932, 0.271, 0.217, 0.864, 0.886, 0.509, 0.183, 0.592]

// batch mode: one self-cleavage value per listed entry
1. G1A U44G
2. C24U U53A
3. U26A C54G
4. C22U C57U

Result ::
0.0722
0.64
0.758
0.192
